cell viability values, listed per item
system: Caco-2; assay: cell viability relative to DMSO; higher = less toxic; settings: 72 h; 1 nM
metric name: cell viability (%)

* O=C(Nc1ccc2[nH]ccc2c1)c1ccccc1 | 91.9
* O=C1C2CC=CCC2C(=O)N1SC(Cl)(Cl)Cl (stereo not drawn) | 102
* CN1C[C@H](CNC(=O)OCc2ccccc2)C[C@@H]2c3cccc4c3c(cn4C)C[C@H]21 | 116
* c1cc2c3c(c1)c1c(n3CCNC2)CCCC1 | 113
* CCOC(=O)NNc1nncc2ccccc12 | 90.4
* COc1cc(N2CCC(N)CC2)ccc1Nc1ncc(Cl)c(-c2c[nH]c3ccccc23)n1 | 103
* C[C@H](Nc1cc(NS(=O)(=O)N2CCC2)nc(SCc2cccc(F)c2F)n1)[C@@H](O)CO | 103
* CCC(C)CCCC(=O)N[C@@H](CCN)C(=O)N[C@H](C(=O)N[C@@H](CCN)C(=O)N[C@H]1CCNC(=O)[C@H]([C@@H](C)O)NC(=O)[C@H](CCN)NC(=O)[C@H](CCN)NC(=O)[C@H](CC(C)C)NC(=O)[C@@H](CC(C)C)NC(=O)[C@H](CCN)NC1=O)[C@@H](C)O (stereo partly drawn) | 94.7

* * *

tested on: A549-ACE2; experiment: drug-induced phospholipidosis relative to tamoxifen; higher = more phospholipidosis; settings: 3.33333 µM; 72 h
metric name: drug-induced phospholipidosis (%)

• OC1=c2ccccc2=C(NC2CCCCC2)/C1=C\c1ccccc1 = 6.19
• CC(C)(C)c1ccc(C(=O)CCCN2CCC(OC(c3ccccc3)c3ccccc3)CC2)cc1 = 24.1
• NC1(c2ccc(-c3nc4ccn5c(=O)[nH]nc5c4cc3-c3ccccc3)cc2)CCC1 = 66.8
• NC(=O)c1noc([C@H](CCCC2CCCCC2)CC(=O)NO)n1 = 8.76
• CC(=O)[O-].CC(=O)[O-].N.NC1CCCCC1.[Cl-].[Cl-].[Pt+4] = 0.684
• CCCCc1oc2ccc(NS(C)(=O)=O)cc2c1C(=O)c1ccc(OCCCN(CCCC)CCCC)cc1 = 94.1

* * *

Reported cell viability values for the following molecules.
system: Caco-2; experiment: cell viability relative to DMSO; higher = less toxic; conditions: 72 h; 1000 nM
metric name: cell viability (%)

* Nc1nc(F)nc2c1ncn2[C@@H]1O[C@H](COP(=O)(O)O)[C@@H](O)[C@@H]1O [fludarabine-phosphate] | 96.9
* C[C@H](Oc1cc(-c2cnn(C3CCNCC3)c2)cnc1N)c1c(Cl)ccc(F)c1Cl [crizotinib-(S)] | 95.1
* COc1cc(-n2cnc3cc(-c4ccc(Cl)cc4)sc3c2=O)ccc1OCCN1CCCC1 | 103
* COC(=O)c1ccc2c(c1)nc(NC(=O)c1ccccc1)n2CCCc1ccccc1 | 91.9
* Cc1cccc(C(C)c2c[nH]cn2)c1C (stereo not given) | 100
* O=c1c(-c2ccc(O)cc2)coc2cc(O)cc(O)c12 | 97
* COc1cc(N)c(Cl)cc1C(=O)OCCN1CCCCC1 | 100
* Cc1cccc(C(=O)NCN2CCN(c3ccccc3C#N)CC2)c1 | 104
* Nc1cccc2c(=O)[nH][nH]c(=O)c12 [monosodium-alpha-luminol] | 92.7
* O=C(Nc1ccc(S(=O)(=O)Nc2ccccc2Cl)c(Cl)c1)c1ccccn1 | 101
* CCN(CC)C(=O)/C(C#N)=C/c1cc(O)c(O)c([N+](=O)[O-])c1 | 96
* Cc1cc(-c2ccccc2)nnc1NCCN1CCOCC1 | 96.1
* COc1cc2ncnc(Nc3cccc(Cl)c3)c2cc1OC | 80.5
* O=P(O)(O)CN(CCN(CP(=O)(O)O)CP(=O)(O)O)CP(=O)(O)O | 105
* O[C@@H]1CO[C@H]2[C@@H]1OC[C@@H]2O [isosorbide] | 102
* CC(=O)N1CCN(C)CC1 | 95.7
* O[C@H]1CC[C@H](Nc2nc(-c3ccccc3)nc3[nH]ccc23)CC1 | 102
* COc1ccc(-c2nc(-c3ccc(-c4cccc(Cl)c4)o3)[nH]c2-c2ccc(OC)cc2)cc1 | 103
* N=C(N)Nc1ccc(Cl)cc1 | 95.1
* CCC1(C)CC(=O)NC(=O)C1 [bemegride] | 94.8

* * *

The following molecules are listed with their measured cell viability values.
system: Caco-2; experiment: cell viability relative to DMSO; higher = less toxic; conditions: 72 h; 1 nM
metric name: cell viability (%)

* N=C(N)Nc1ccc(Cl)cc1 | 103
* OC(CNCC(O)C1CCc2cc(F)ccc2O1)C1CCc2cc(F)ccc2O1 (configuration not stated) | 114
* CC(C)c1c2cc(-c3ccnc(N[C@H]4CC[C@H](NC5CCOCC5)CC4)n3)ccc2nn1C | 94.6
* N=C(N)NCc1cccc(I)c1 | 114
* O=C(OOC(=O)c1ccccc1)c1ccccc1 [benzoyl-peroxide] | 102
* Cn1c(COP(=O)(NCCBr)NCCBr)cnc1[N+](=O)[O-] | 107
* COc1ccc2c(c1)[C@]13CCCC[C@@H]1[C@H](C2)N(C)CC3 | 98.1
* CN(C)c1ccc(-c2nc3c(N4CCN(CC(=O)Nc5nccs5)CC4)c(Cl)cnc3[nH]2)cc1 | 99.6
* CN(C)C(=O)n1nnnc1Cc1ccc(-c2ccccc2)cc1 | 106
* Nc1nccc(Oc2ccc(NC(=O)c3cn(COP(=O)(O)O)cc(-c4ccc(F)cc4)c3=O)cc2F)c1Cl | 97.2
* COC(F)(F)C(Cl)Cl | 96.2
* O=P(O)(O)CN(CCN(CP(=O)(O)O)CP(=O)(O)O)CP(=O)(O)O | 98.2
* O=c1c(-c2ccc(O)cc2)coc2cc(O)cc(O)c12 | 102
* CCN(C)C(=O)Oc1cccc([C@H](C)N(C)C)c1 | 109
* CCCCCCCCCCCCCCCC[N+](C)(C)Cc1ccccc1 | 93.9
* Cc1cccc(Oc2nc3c(C)cccn3c(=O)c2/C=C(\C#N)c2nc3ccccc3s2)c1 | 93.1
* CC(C)Oc1ccc(-c2nc(-c3cccc4c3CC[C@H]4NCCC(=O)O)no2)cc1C#N | 95
* CCOCOC[C@H](C[C@H](C)C(=O)NO)NC(=O)c1ccc(Oc2ccccc2)cc1 | 104
* Cc1cccc(/C=N/Nc2cc(N3CCOCC3)n3nc(-c4ccncc4)cc3n2)c1 | 95.5
* C[C@@H](CCCCC(=O)Nc1ccc(C(F)(F)F)cc1)NCCc1c[nH]cn1 | 97.2
* CO[C@@]1(NC(=O)C(C(=O)O)c2ccc(O)cc2)C(=O)N2C(C(=O)O)=C(CSc3nnnn3C)CO[C@@H]21 (some centres not stated) | 92.6
* NC1(Cc2ccc(Cl)cc2)CCN(c2ncnc3[nH]ccc23)CC1 | 93.7
* CCN(CCO)CCCOc1ccc2c(Nc3cc(CC(=O)Nc4cccc(F)c4)[nH]n3)ncnc2c1 | 93
* CC(=O)NCCc1c(Cc2ccccc2)[nH]c2ccccc12 | 97.4
* CC(=O)Nc1c(I)c(C(=O)O)c(I)c(N(C)C(C)=O)c1I | 92
* O=C1CC[C@@](c2ccccc2)(C2CCN(Cc3ccc(I)cc3)CC2)C(=O)N1 [iododexetimide] | 89
* COc1ccc2[nH]c(I)c(CCNC(C)=O)c2c1 | 98.5
* CCOC(=O)Nc1ccc(NCc2c(C)cc(C)cc2C)cc1N | 101
* OC[C@H]1O[C@@H](n2cnc3c(N[C@H]4CCC[C@@H]4O)ncnc32)[C@H](O)[C@@H]1O | 103
* C[C@]1(O)C[C@@H](c2nc(-c3ccc4ccc(-c5ccccc5)nc4c3)c3c(N)nccn32)C1 | 96.6
* CC(C)(Sc1ccncc1-c1ccc(C#N)c2ccccc12)C(=O)O | 97.6
* COc1cc2ncnc(Nc3cccc(Cl)c3)c2cc1OC | 102
* COc1ccc(-c2sc(NC(=O)C(C)(C)C)nc2C)cc1S(=O)(=O)Nc1ccc(O)cc1 | 95.6
* Nc1ccc(S(=O)(=O)Nc2ccnn2-c2ccccc2)cc1 | 97.5
* O=C(NCC(=O)N1CCCCC1)Nc1ccc2nnsc2c1 | 95.3
* Nc1cccc2c(=O)[nH][nH]c(=O)c12 [monosodium-alpha-luminol] | 93
* COc1cc2c(cc1-c1c(C)noc1C)ncc1[nH]c(=O)n([C@H](C)c3ccccn3)c12 | 104

* * *

tested on: U2OS; test: cell viability relative to DMSO; higher = less toxic; settings: 72 h; 10000 nM
Form field: cell viability (one value per entry).
metric name: cell viability (%)

• CN(C)CCCN1c2ccccc2Sc2ccc(Cl)cc21 [chlorpromazine] = 86.2
• O[C@@H]1CO[C@H]2[C@@H]1OC[C@@H]2O [isosorbide] = 94.4
• CC(C)c1c2cc(-c3ccnc(N[C@H]4CC[C@H](NC5CCOCC5)CC4)n3)ccc2nn1C = 4.6
• C[C@]1(O)C[C@@H](c2nc(-c3ccc4ccc(-c5ccccc5)nc4c3)c3c(N)nccn32)C1 [linsitinib] = 67.9
• CO[C@@H]1[C@@H](O[C@@H]2O[C@H](C)[C@@H](O[C@H]3C[C@@](C)(O)[C@@H](OC(=O)CC(C)C)[C@H](C)O3)[C@H](N(C)C)[C@H]2O)[C@@H](CC=O)C[C@@H](C)[C@@H](O)/C=C/C=C/C[C@@H](C)OC(=O)C[C@H]1OC(C)=O [josamycin] = 100
• CC[C@H]1[C@@H](O)[C@@H]2[C@H](CC[C@]3(C)[C@@H]([C@H](C)CCOS(=O)(=O)O)CC[C@@H]23)[C@@]2(C)CC[C@@H](O)C[C@@H]12 [INT-767] = 101
• O=C(NCc1ccc(Oc2ccccc2)cc1)c1nc(-c2cc(Br)c(O)c(Br)c2)no1 [IOWH032] = 92.3
• CC(C)(C)c1ccc(C(=O)CCCN2CCC(OC(c3ccccc3)c3ccccc3)CC2)cc1 [ebastine] = 87.9
• CN[C@@H](C)C(=O)N[C@H](C(=O)N1CCC[C@H]1c1nc(C(=O)c2ccc(F)cc2)cs1)C1CCCCC1 [LCL-161] = 94
• CC[C@H](CO)Nc1nc(Nc2cccc(-c3ccccn3)c2)c2ncn(C(C)C)c2n1 [DRF053-(R)] = 94.4
• O=P(O)(O)CN(CCN(CP(=O)(O)O)CP(=O)(O)O)CP(=O)(O)O [EDTMP] = 104
• COc1ccnc2[nH]cc(C(=O)C(=O)N3CCN(C(=O)c4ccccc4)C[C@H]3C)c12 [BMS-806] = 100
• Cc1cc([N+](=O)[O-])ccc1NS(=O)(=O)c1cc(Cl)ccc1Cl [FH-535] = 89.5
• CO[C@@H]1[C@H](N(C)C(=O)c2ccccc2)C[C@H]2O[C@]1(C)n1c3ccccc3c3c4c(c5c6ccccc6n2c5c31)C(=O)NC4 [midostaurin] = 29
• O=C(O)C1(C(=O)O)CCC1.[NH2-].[NH2-].[Pt+2] [carboplatin] = 108
